# Target or test system: human GLP-1 receptor (GLP-1R) (human, UniProt P43220 24-463)
# Assay method text: cell-based or functional assay
*1 amine or outer side, *2 acyl side, *3 side chain or, on linkers, in order; H or OH if unused. Primed or numbered codes have the meaning given here. Where no end group is shown, it is not given here. Side-chain parts run from the residue outwards. [ ]: non-standard residue; d: D form. The star is where a group is joined. PEG4′ = 4 PEG units (K(PEGxpalm): Lys with x PEG units and palmitoyl at epsilon N, C-terminal (PEG)4); γGlu = O=C(O)[C@H](CCC(=O)[*:2])N[*:1]; Palmitoyl = CCCCCCCCCCCCCCCC(=O)*; Aib = CC(C)(N)C(=O)O
Label rule, in plain words: cAMP activity, GLP1 EC50 nM of 0.05 nM and up is True, under 0.05 nM is False.

*Q* Form field: cAMP activity, GLP1 EC50 nM at least 0.05 nM? Entry: HSQGTFTSDYSKYLDSXRAQDFVQWLE (K(PEG2-palm) at 17; C-terminal PEG4) [g502]
*A* False

*Q* Form field: cAMP activity, GLP1 EC50 nM at least 0.05 nM? Entry: HSQGTFTSDYSKYLDSK([γGlu-Palmitoyl])RARDFVAWLV[PEG4′] [g800]
*A* True

*Q* Form field: cAMP activity, GLP1 EC50 nM at least 0.05 nM? Entry: HSQGTFTSDYSKYLDK([γGlu-Palmitoyl])RRAQDFVQWLV[PEG4′] [g424]
*A* True

*Q* Form field: cAMP activity, GLP1 EC50 nM at least 0.05 nM? Entry: HSQGTFTSDYSKYLDSXRAQDFVQWLE (K(PEG3-palm) at 17; C-terminal PEG4) [g503]
*A* False

*Q* Form field: cAMP activity, GLP1 EC50 nM at least 0.05 nM? Entry: HGQGTFTSDYSEYLDSK([γGlu-Palmitoyl])RAQDFVQWLV[PEG4′] [g695]
*A* True

*Q* Form field: cAMP activity, GLP1 EC50 nM at least 0.05 nM? Entry: HSQGTFTSDYSKYLDKRRAQDFVQWLV[PEG4′] (not fully specified (residue 16); printed as HSQGTFTSDYSKYLDB1RRAQDFVQWLVZ4) [g425]
*A* False

*Q* Form field: cAMP activity, GLP1 EC50 nM at least 0.05 nM? Entry: H[Aib]QGTFTSDYSKYLDSK([γGlu-Palmitoyl])RAQDFVAWLV[PEG4′] [g870]
*A* True

*Q* Form field: cAMP activity, GLP1 EC50 nM at least 0.05 nM? Entry: HGQGTFTSDYSKYLDSXRAQDFVQWLE (K(gE-palm) at 17; C-terminal PEG4) [g516]
*A* True

*Q* Form field: cAMP activity, GLP1 EC50 nM at least 0.05 nM? Entry: HGQGTFTSDYSKYLDSEK([γGlu-Palmitoyl])ARDFVAWLV[PEG4′] [g735]
*A* True

*Q* Form field: cAMP activity, GLP1 EC50 nM at least 0.05 nM? Entry: HSQGTFTSDYSKYLDSRKAQDFVQWLV[PEG4′] (not fully specified (residue 18); printed as HSQGTFTSDYSKYLDSRB1AQDFVQWLVZ4) [g423]
*A* False

*Q* Form field: cAMP activity, GLP1 EC50 nM at least 0.05 nM? Entry: HSQGTFTSDYSKYLDSXRAQDFVQWLV (not fully specified; K(PEG2-palm) at 17; C-terminal PEG4) [g435]
*A* False

*Q* Form field: cAMP activity, GLP1 EC50 nM at least 0.05 nM? Entry: HSEGTFTSDYSKYLDSK([γGlu-Palmitoyl])RAQDFVQWLV[PEG4′] [g432]
*A* True

*Q* Form field: cAMP activity, GLP1 EC50 nM at least 0.05 nM? Entry: HSQGTFTSDYSKYLDSRRAQXFVQWLV (K(gE-palm) at 21; C-terminal PEG4) [g808]
*A* True

*Q* Form field: cAMP activity, GLP1 EC50 nM at least 0.05 nM? Entry: HSQGTFTSDYSKYLDSXRAQDFVQWLV (K(PEG3-palm) at 17; C-terminal PEG4) [g434]
*A* False

*Q* Form field: cAMP activity, GLP1 EC50 nM at least 0.05 nM? Entry: HSQGTFTSDYSKYLDK([PEG4′-Palmitoyl])RRAQDFVQWLE[PEG4′] [g495]
*A* True

*Q* Form field: cAMP activity, GLP1 EC50 nM at least 0.05 nM? Entry: HXQGTFTSDYSKYLDSXRAQDFVQWLV (alpha-amino-iso-butyric acid (Aib) at 2; K(gE-palm) at 17; C-terminal PEG4) [g500]
*A* True

*Q* Form field: cAMP activity, GLP1 EC50 nM at least 0.05 nM? Entry: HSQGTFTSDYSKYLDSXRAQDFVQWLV (not fully specified; K(PEG4-palm) at 17; C-terminal PEG12) [g440]
*A* False

*Q* Form field: cAMP activity, GLP1 EC50 nM at least 0.05 nM? Entry: HSQGTFTSDYSKYLDSXRAQDFVQWLE (not fully specified; K(PEG4-palm) at 17; C-terminal PEG4) [g429]
*A* False

*Q* Form field: cAMP activity, GLP1 EC50 nM at least 0.05 nM? Entry: HGQGTFTSDYSKYLESK([γGlu-Palmitoyl])RAQDFVQWLV[PEG4′] [g498]
*A* True

*Q* Form field: cAMP activity, GLP1 EC50 nM at least 0.05 nM? Entry: HGQGTFTSDYSKYLESK([PEG4′-Palmitoyl])RAQDFVQWLV[PEG4′] [g499]
*A* False

*Q* Form field: cAMP activity, GLP1 EC50 nM at least 0.05 nM? Entry: HSQGTFTSDYSXYLDSRRAQDFVQWLV (K(gE-palm) at 12; C-terminal PEG4) [g416]
*A* True

*Q* Form field: cAMP activity, GLP1 EC50 nM at least 0.05 nM? Entry: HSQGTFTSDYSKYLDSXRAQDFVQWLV (not fully specified; K(PEG4-palm) at 17; C-terminal PEG3) [g436]
*A* False

*Q* Form field: cAMP activity, GLP1 EC50 nM at least 0.05 nM? Entry: HGQGTFTSDYSEYLDSK([γGlu-Palmitoyl])RARDFVEWLV[PEG4′] [g677]
*A* True

Source listed as patent US20160017016A1.
